This collection of values is drawn from the supplement of paper PMC9170038.

System: MS2 coat protein
assay_details: apparent KD of MS2 coat protein; designed switch direction (-1 OFF switch, 1 ON switch): 1; higher = weaker reporter binding
applied_conditions: Eterna round: R95; input ligand: FMN 200 uM
measure: apparent KD of MS2 coat protein (µM)
Quick reminder: number only, in µM, skip the unit.

Known apparent KD of MS2 coat protein results, listed for orientation:
sequence_string	apparent KD of MS2 coat protein (µM)
CGUUCUUACUCAGGACGGAGAGUAGAGGAACAUGAGGAUCACCCAUGUAUGAGCUUUUUGCUCGUGAUUAACAGUAG [JR_SHM208a_Sub013] (puzzle: Sensor for hsa-mir-208a)	0.0627
UACAAUCUAUCUGAGGAUAUCAUGCAUUACACAUGAGGAUCACCCAUGUGCAGGAAAACUGCAUAUGAGAAGGCAGAUAGAUUGU [salish99_ss2_r3_066] (puzzle: Same State 2)	0.0201
UAGUACAAGCUUUUUGCUUGUCUUAUUUAACAUGAGGAUCACCCAUGUAAGUUGAAAGUUAGAGAGUGGAGGUUGAA [JR_SHM208A_Sub050] (puzzle: Sensor for hsa-mir-208a)	0.02
UGUCCAGCCUGAGCUGGACAAAAGCAUGUACAUGAGGAUCACCCAUGUUCAUGUACAAGCUUUUUGCUCGUCUUAUC [salish99_208a_r3_057] (puzzle: Sensor for hsa-mir-208a)	0.401

# query: apparent KD of MS2 coat protein of entry GGUCCAGCCUGAGCUGGACUACAGCAUGUACAUGAGGAUCACCCAUGUCAUGUACAUGUUUUUUGUUUGUCUUAAAA [Sensorship 9 - Jieux - Sensor for hsa-mir-208a] (puzzle: Sensor for hsa-mir-208a)
0.069
